# Experimental target: CCR1 (Homo sapiens)
# Sequence (P32246 1-355): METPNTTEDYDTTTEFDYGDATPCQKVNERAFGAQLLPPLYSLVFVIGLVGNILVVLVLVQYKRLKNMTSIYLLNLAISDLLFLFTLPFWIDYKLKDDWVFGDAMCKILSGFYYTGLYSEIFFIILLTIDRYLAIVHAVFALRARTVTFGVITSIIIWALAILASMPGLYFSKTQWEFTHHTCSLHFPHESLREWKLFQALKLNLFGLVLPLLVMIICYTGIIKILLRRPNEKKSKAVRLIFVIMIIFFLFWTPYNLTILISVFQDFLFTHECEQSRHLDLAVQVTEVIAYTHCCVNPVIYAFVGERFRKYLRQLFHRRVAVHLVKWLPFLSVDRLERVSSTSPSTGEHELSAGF
# Assay details: Inhibition of CCR1 ligand binding (125I labeled MIP-1α binding to CCR1 expressing cells)
# Parameters: expressed in transfected cells; host or cells: NSO murine myeloma (CCR1-NSO) or HEK 293 (CCR1-293)
# Conditions used: read-out: IC50 (Inhibition Constant; μM), CCR1-MIP-1α binding; CCR1-293 cells; compound titered 1×10^−8 to 1×10^−4 M; * = partially blocked MIP-1α binding at the highest tested concentration
Property name: IC50
Kindly write the number and append the unit.

[Q] Short answer please: IC50, CCR1 (Homo sapiens), entry COC(=O)c1cc(C#N)c(Sc2c([N+](=O)[O-])cc(C(F)(F)F)cc2[N+](=O)[O-])nc1C(OC)OC [CCX-5119]
[A] 45 µM
